Sourced from the supplement of paper PMC12042874

- method-summary: amyloid nucleation score (Sup35N fusion, yeast selection) (log enrichment); library NNK3; higher = more nucleation; inactive = no reads after selection;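 note: zero at mode of non-aggregating sequences after 7 days selection at 30°C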
value-type: amyloid nucleation score

Some solved cases for reference:
INSERT INTO assay_data (substance, data_value) VALUES
  ('FHNAFAFLSHWGVMVRSFEG', 'inactive'),
  ('SLPGSKYKAFH', 'inactive'),
  ('SFRRLDGNRNLFSSCRVNGL', 'inactive'),
  ('PVQQSGLVWRLGAIVVC', 'inactive'),
  ('HDLAGQFISV', 'inactive');

Lab note: measured amyloid nucleation score of LRCTVRSLAKFVFYRFKTGG was inactive

Query VLLAIGWVGGIFCGIWAGSH yields amyloid nucleation score of inactive

Form: substance = TLLLAMNDVTSRLL ; amyloid nucleation score = inactive
